Origin of values: ChEMBL document CHEMBL1148166

Provide the recorded ED50 for the entries that follow.
# Test system: HT-29
# TEST: Cytotoxicity against human HT-29 cells
# Type: functional

Input: Can you share its ED50? I mean this molecule: CCCCC(O)CCCCC[C@H](O)[C@H]1CC[C@H]([C@H]2CC[C@H]([C@H](O)CCCCCCCCCCC3CC(CC(C)=O)C(=O)O3)O2)O1 (mixture of isomers)
Output: <1 ×10⁻¹² ug/ml

Input: Can you share its ED50? I mean this molecule: CCCCCCCCCC[C@H](O)[C@H]1CC[C@H]([C@H]2CC[C@H]([C@H](O)CCCCCCCCCCC3CC(CC(C)=O)C(=O)O3)O2)O1 (mixture of isomers)
Output: 1.19 ×10⁻⁶ ug/ml

Input: Can you share its ED50? I mean this molecule: CCCC(O)CCCCCC[C@H](O)[C@H]1CC[C@H]([C@H]2CC[C@H]([C@H](O)CCCCCCCCCCC3CC(CC(C)=O)C(=O)O3)O2)O1 (mixture of isomers)
Output: 1.09 ×10⁻¹² ug/ml

Input: Can you share its ED50? I mean this molecule: CCC(O)CCCCCCC[C@H](O)[C@H]1CC[C@H]([C@H]2CC[C@H]([C@H](O)CCCCCCCCCCC3CC(CC(C)=O)C(=O)O3)O2)O1 (mixture of isomers)
Output: <1 ×10⁻¹² ug/ml

Input: Can you share its ED50? I mean this molecule: COc1cccc2c1C(=O)c1c(O)c3c(c(O)c1C2=O)C[C@@](O)(C(=O)CO)C[C@@H]3O[C@H]1C[C@H](N)[C@H](O)[C@H](C)O1
Output: 3.32 ×10⁻⁴ ug/ml

* * *

# TEST: Toxicity in brine shrimp
# Assay type: organism-based
# MEASUREMENT SETUP: artemia, in vivo
MEASUREMENT LABEL: LC50 (µg/mL)
# unit: µg/mL | format: bare number

Input: Can you share its LC50? I mean this compound: CCCC(O)CCCCCC[C@H](O)[C@H]1CC[C@H]([C@H]2CC[C@H]([C@H](O)CCCCCCCCCCC3CC(CC(C)=O)C(=O)O3)O2)O1 (mixture of isomers)
Output: 0.158

Input: Can you share its LC50? I mean this compound: CCCCCCCCCC[C@H](O)[C@H]1CC[C@H]([C@H]2CC[C@H]([C@H](O)CCCCCCCCCCC3CC(CC(C)=O)C(=O)O3)O2)O1 (mixture of isomers)
Output: 0.0054
